- assay_system: Isocitrate dehydrogenase [NADP] cytoplasmic (Homo sapiens)
assay_metric: Kd

// lookup Kd | system=Isocitrate dehydrogenase [NADP] cytoplasmic (Homo sapiens) | key= CC(C)(C)c1cc(C(c2ccccn2)N2CCOCC2)cc(C(C)(C)C)c1O (stereo unspecified)
> 50 µM

----------
- assay_system: Isocitrate dehydrogenase [NADP] cytoplasmic (Homo sapiens, UniProt O75874, R132H)
- Sequence (O75874 2-414 R132H limits assumed): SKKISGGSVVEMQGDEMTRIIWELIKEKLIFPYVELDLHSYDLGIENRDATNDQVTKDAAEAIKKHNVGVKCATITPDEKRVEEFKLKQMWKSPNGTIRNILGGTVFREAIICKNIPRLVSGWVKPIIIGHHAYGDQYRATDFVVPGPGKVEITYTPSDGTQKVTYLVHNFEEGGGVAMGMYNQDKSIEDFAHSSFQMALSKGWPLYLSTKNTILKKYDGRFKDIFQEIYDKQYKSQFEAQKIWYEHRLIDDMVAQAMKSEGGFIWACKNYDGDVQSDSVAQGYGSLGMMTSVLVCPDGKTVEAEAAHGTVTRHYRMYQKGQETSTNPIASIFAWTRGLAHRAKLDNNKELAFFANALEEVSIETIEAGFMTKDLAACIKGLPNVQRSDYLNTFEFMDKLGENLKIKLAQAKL
- assay_protocol: Binding affinity to N-terminal 6-His-tagged IDH1 R132H mutant (unknown origin) expressed in BL21 cells assessed as equilibrium dissociation constant by SPR assay
assay_metric: Kd
Express the reported value numerically, then name its unit.

Name the reported Kd value associated with the compound CC(C)(C)c1cc(C(c2ccccn2)N2CCOCC2)cc(C(C)(C)C)c1O (stereo unspecified)
3.8 µM

----------
- Tested on: HT-1080
- assay_protocol: Antiproliferation activity against human HT1080 cells assessed as reduction in cell viability after 72 hrs by Cell Titer-Glo luminescent assay
- test_context: HT-1080, 72 h
assay_metric: IC50 (µM)
One number for each entry, in µM.

Return IC50 measured with HT-1080 given this compound: CC(C)(C)c1cc(C(c2ccccn2)N2CCOCC2)cc(C(C)(C)C)c1O (stereo unspecified)
5

----------
- assay_system: Isocitrate dehydrogenase [NADP] cytoplasmic (Homo sapiens, UniProt O75874, R132H)
- assay_protocol: Inhibition of N-terminal 6-His-tagged IDH1 R132H mutant (unknown origin) expressed in Escherichia coli BL21 cells using alpha-KG as substrate in presence of NADPH incubated for 40 mins by fluorescence assay
Assign IC50 to each entry below.

Here are 10 compounds together with their reported answers.
- compound: "CCCCN1CCN(C(c2cc(C(C)(C)C)c(O)c(C(C)(C)C)c2)c2ccccn2)CC1 (configuration not stated)"
  assay_system: "Isocitrate dehydrogenase [NADP] cytoplasmic (Homo sapiens, UniProt O75874, R132H)"
  IC50: "> 50 µM"
- compound: "CC(C)(C)c1cc(C(c2ccccn2)N2CCN(C(C)(C)C)CC2)cc(C(C)(C)C)c1O (configuration not stated)"
  assay_system: "Isocitrate dehydrogenase [NADP] cytoplasmic (Homo sapiens, UniProt O75874, R132H)"
  IC50: "> 50 µM"
- compound: "CC(C)(C)c1cc(C(OC2CCCCC2)c2ccccn2)cc(C(C)(C)C)c1O (configuration not stated)"
  assay_system: "Isocitrate dehydrogenase [NADP] cytoplasmic (Homo sapiens, UniProt O75874, R132H)"
  IC50: "> 50 µM"
- compound: "CC(C)(C)c1cc(C(c2cccc(F)c2)N2CCOCC2)cc(C(C)(C)C)c1O (configuration not stated)"
  assay_system: "Isocitrate dehydrogenase [NADP] cytoplasmic (Homo sapiens, UniProt O75874, R132H)"
  IC50: "> 50 µM"
- compound: "CC(C)(C)c1cc(C(SC2CCCCC2)c2ccccn2)cc(C(C)(C)C)c1O (configuration not stated)"
  assay_system: "Isocitrate dehydrogenase [NADP] cytoplasmic (Homo sapiens, UniProt O75874, R132H)"
  IC50: "> 50 µM"
- compound: "CC(C)(C)c1cc(C(c2ccccn2)N2CCOCC2)cc(C(C)(C)C)c1 (configuration not stated)"
  assay_system: "Isocitrate dehydrogenase [NADP] cytoplasmic (Homo sapiens, UniProt O75874, R132H)"
  IC50: "> 50 µM"
- compound: "Cc1cccc(C(c2cc(C(C)(C)C)c(O)c(C(C)(C)C)c2)N2CCOCC2)n1 (configuration not stated)"
  assay_system: "Isocitrate dehydrogenase [NADP] cytoplasmic (Homo sapiens, UniProt O75874, R132H)"
  IC50: "> 50 µM"
- compound: "CC(C)N1CCN(C(c2cc(C(C)(C)C)c(O)c(C(C)(C)C)c2)c2ccccn2)CC1 (configuration not stated)"
  assay_system: "Isocitrate dehydrogenase [NADP] cytoplasmic (Homo sapiens, UniProt O75874, R132H)"
  IC50: "4.76 µM"
- compound: "CN1CCN(C(c2cc(C(C)(C)C)cc(C(C)(C)C)c2)c2ccccn2)CC1 (configuration not stated)"
  assay_system: "Isocitrate dehydrogenase [NADP] cytoplasmic (Homo sapiens, UniProt O75874, R132H)"
  IC50: "> 50 µM"
- compound: "CC(C)(C)c1cc(C(c2ccccn2)N2CCN(C3CCCCC3)CC2)cc(C(C)(C)C)c1O (configuration not stated)"
  assay_system: "Isocitrate dehydrogenase [NADP] cytoplasmic (Homo sapiens, UniProt O75874, R132H)"
  IC50: "> 50 µM"

# map each compound to its IC50
1. CC(C)(C)c1cc(C(c2ccccn2)N2CCOCC2)cc(C(C)(C)C)c1O (configuration not stated)
2. Cc1ccccc1C(C(=O)NC1CCCCC1)N(C(=O)Cn1ccnc1C)c1cccc(F)c1 (configuration not stated)

1. 0.41 µM
2. 0.082 µM

Dear colleague, could you send me IC50 for each of the items below? Thanks.
1. Cc1cccnc1C(c1cc(C(C)(C)C)c(O)c(C(C)(C)C)c1)N1CCOCC1 (configuration not stated)
2. CC(C)(C)c1cc(C(c2ccccn2)N2CCN(c3ccccc3)CC2)cc(C(C)(C)C)c1O (configuration not stated)
3. CN1CCN(C(c2cc(C(C)(C)C)c(O)c(C(C)(C)C)c2)c2ccccn2)CC1 (configuration not stated)
4. CCN1CCN(C(c2cc(C(C)(C)C)c(O)c(C(C)(C)C)c2)c2ccccn2)CC1 (configuration not stated)

20 µM
> 50 µM
3 µM
12 µM

Endpoint output: IC50 of CC(C)(C)c1cc(C(c2ccccn2)N2CCN(CC3CC3)CC2)cc(C(C)(C)C)c1O (configuration not stated) . Value?
> 50 µM

----------
For reference, IC50 measured on Isocitrate dehydrogenase [NADP] cytoplasmic (Homo sapiens):
One number for each entry, in µM.

Sample answers from the record:
- compound: "CC(C)(C)c1cc(C(c2ccccn2)N2CCN(C(C)(C)C)CC2)cc(C(C)(C)C)c1O (configuration not stated)"
  IC50 [µM]: 8.5
- compound: "CC(C)N1CCN(C(c2cc(C(C)(C)C)c(O)c(C(C)(C)C)c2)c2ccccn2)CC1 (configuration not stated)"
  IC50 [µM]: 3

# get_value(readout= IC50, system= Isocitrate dehydrogenase [NADP] cytoplasmic (Homo sapiens)) for CCN1CCN(C(c2cc(C(C)(C)C)c(O)c(C(C)(C)C)c2)c2ccccn2)CC1 (configuration not stated)
6.4

----------
- assay_system: Isocitrate dehydrogenase [NADP] cytoplasmic (Homo sapiens, UniProt O75874, R132C)
- Sequence (O75874 2-414 R132C limits assumed): as the sequence (O75874 2-414 R132H limits assumed) above, with H131C counted along it
- assay_protocol: Inhibition of N-terminal 6-His-tagged IDH1 R132C mutant (unknown origin) expressed in Escherichia coli BL21 cells using alpha-KG as substrate in presence of NADPH incubated for 40 mins by fluorescence assay
assay_metric: IC50 (µM)
Give bare numbers, in µM.

Use the examples below as a reference point.
- compound: "CN1CCN(C(c2cc(C(C)(C)C)c(O)c(C(C)(C)C)c2)c2ccccn2)CC1 (centres undefined)"
  assay_metric: "IC50"
  number: 4.9
- compound: "CC(C)(C)c1cc(C(c2ccccn2)N2CCN(C(C)(C)C)CC2)cc(C(C)(C)C)c1O (centres undefined)"
  assay_metric: "IC50"
  number: 9
- compound: "CCCCN1CCN(C(c2cc(C(C)(C)C)c(O)c(C(C)(C)C)c2)c2ccccn2)CC1 (centres undefined)"
  assay_metric: "IC50"
  number: 9
- compound: "CC(C)N1CCN(C(c2cc(C(C)(C)C)c(O)c(C(C)(C)C)c2)c2ccccn2)CC1 (centres undefined)"
  assay_metric: "IC50"
  number: 7
- compound: "CCN1CCN(C(c2cc(C(C)(C)C)c(O)c(C(C)(C)C)c2)c2ccccn2)CC1 (centres undefined)"
  assay_metric: "IC50"
  number: 4.8
- compound: "CC(C)(C)c1cc(C(c2ccccn2)N2CCOCC2)cc(C(C)(C)C)c1O (centres undefined)"
  assay_metric: "IC50"
  number: 2.7

Lab note: next compound to report on.
Value lookup for IC50; key = CC(C)(C)c1cc(C(c2ccccn2)N2CCN(CC3CC3)CC2)cc(C(C)(C)C)c1O (centres undefined)
18
